# apparent KD of MS2 coat protein listing for each entry below
- Tested on: MS2 coat protein
- PROCEDURE TEXT: apparent KD of MS2 coat protein; designed switch direction (-1 OFF switch, 1 ON switch): -1; higher = weaker reporter binding
- CONDITION SUMMARY: input ligand: FMN 200 uM
Lab book: enter the figure in nM, no units written.

>  <ENTRY SEQUENCE>
UCGCCGCCCUUGGGCGGCGACAUGAGGAUCACCCAUGUCAAGCUUUUUGCUCGUUUUAUUGCCGGCCUUGGCCGGCU [Olib_2] (Eterna round: R97, puzzle: Sensor, turn-off variant 1)

>  <ASSAYED SYSTEM>
MS2 coat protein

>  <OBSERVABLE>
apparent KD of MS2 coat protein

>  <EXPERIMENTAL RESULT>
28.3

$$$$

QUERY: Requested field: apparent KD of MS2 coat protein. Item: CGAUAAUCCAAGGAUAUGCUAGACGAAAGUCUAGCAGAAGGUGGAACAUGAGGAUCACCCAUGUGUCCAAAUCG [Mat - Exclusion 6 - Eli Mod - D27] (Eterna round: R97, puzzle: Exclusion 6)
RESULT: 22.2

QUERY: Requested field: apparent KD of MS2 coat protein. Item: GUUGAUGUAGGAUAUACAUGAGGAUCACCCAUGUUGGUGCCCUAACCUAUUGGUGUACGUAGAAGGGCGGACUC [Eternabot (L2) Solution 96] (Eterna round: R97, puzzle: Exclusion 3)
RESULT: 103

QUERY: Requested field: apparent KD of MS2 coat protein. Item: GCAGAAUGAGUUAGGAUAUGAUGAUUUUUCGGAAAUCAGAAGGAACUUGAGGAUCACCCAAGUUAAGAUAGGGU [JR_BMEx4_Sub065] (Eterna round: R97, puzzle: Brourd's mod of Exclusion 4)
RESULT: 229

QUERY: Requested field: apparent KD of MS2 coat protein. Item: UUUGCAAGCUAUAGAUCCCACAUGAGGAUCACCCAUGUUGCUGCCGUGAGGUAGCAUUUAACUAUUGCUCGUCUUAU [JL TOV1 3.51] (Eterna round: R97, puzzle: Sensor, turn-off variant 1)
RESULT: 190
